# targetUnderTest: Serine/threonine-protein kinase mTOR (Homo sapiens, UniProt P42345)
# testSummary: Inhibition of human recombinant GST-tagged mTOR catalytic domain (1360 to 2549 residues) expressed in baculovirus expression system using GFP-4E-BP1 peptide as substrate incubated for 1 hr by LanthaScreen assay
pKi: −log10 of the molar value.
Note to self: values exactly at 7 are Met. So pKi at or above 7 is Met, below is Not met.

Use the examples below as a reference point.
{"smilesRepresentation": "CC(C)n1nc(-c2ccc3oc(N)nc3c2)c2c(=O)[nH]c(N)nc21", "targetUnderTest": "Serine/threonine-protein kinase mTOR (Homo sapiens, UniProt P42345)", "class": "Met"}
{"smilesRepresentation": "CCCCn1nc(-c2ccc3oc(N)nc3c2)c2c(C)nc(N)nc21", "targetUnderTest": "Serine/threonine-protein kinase mTOR (Homo sapiens, UniProt P42345)", "class": "Met"}
{"smilesRepresentation": "CC(C)n1nc(-c2ccc3oc(N)nc3c2)c2c(=O)[nH]c(N(C)C)nc21", "targetUnderTest": "Serine/threonine-protein kinase mTOR (Homo sapiens, UniProt P42345)", "class": "Not met"}

**Q:** Hi, just wondering whether CCc1nc(N)nc2c1c(-c1ccc3oc(N)nc3c1)nn2C(C)C shows pKi of 7 or higher.
**A:** Met

**Q:** Hi, just wondering whether CC(C)n1nc(-c2ccc3oc(N)nc3c2)c2c(C#N)nc(N)nc21 shows pKi of 7 or higher.
**A:** Not met

**Q:** Hi, just wondering whether CC(C)n1nc(-c2ccc3oc(N)nc3c2)c2c(=O)[nH]cnc21 shows pKi of 7 or higher.
**A:** Met

**Q:** Hi, just wondering whether COc1nc(N)nc2c1c(-c1ccc3oc(N)nc3c1)nn2C(C)C shows pKi of 7 or higher.
**A:** Not met

**Q:** Hi, just wondering whether CCCCn1nc(-c2ccc3oc(N)nc3c2)c2c(Cl)nc(N)nc21 shows pKi of 7 or higher.
**A:** Met

**Q:** Hi, just wondering whether CC(C)n1nc(-c2ccc3oc(N)nc3c2)c2c(Br)nc(N)nc21 shows pKi of 7 or higher.
**A:** Met

**Q:** Hi, just wondering whether CC(C)n1nc(-c2ccc3oc(N)nc3c2)c2c(CO)nc(N)nc21 shows pKi of 7 or higher.
**A:** Not met

**Q:** Hi, just wondering whether CNc1nc2c(c(-c3ccc4oc(N)nc4c3)nn2C(C)C)c(=O)[nH]1 shows pKi of 7 or higher.
**A:** Not met

**Q:** Hi, just wondering whether CC(C)n1nc(-c2ccc3oc(N)nc3c2)c2c(N)nc(N)nc21 shows pKi of 7 or higher.
**A:** Met

**Q:** Hi, just wondering whether Cc1nc2c(c(-c3ccc4oc(N)nc4c3)nn2C(C)C)c(=O)[nH]1 shows pKi of 7 or higher.
**A:** Met

**Q:** Hi, just wondering whether CC(C)n1nc(-c2ccc3oc(N)nc3c2)c2c(C(F)(F)F)nc(N)nc21 shows pKi of 7 or higher.
**A:** Not met

**Q:** Hi, just wondering whether CC(C)n1nc(-c2ccc3oc(N)nc3c2)c2cnc(N)nc21 shows pKi of 7 or higher.
**A:** Met
